Taken from PubChem BioAssay (NCI).

# TEST DESCRIPTION: NCI Yeast Anticancer Drug Screen. Data for the mec2-1 strain (AID 157)
# TEST SETTINGS: S. cerevisiae mec2-1 strain, at 50.0 µM, stronger effect = higher value
About 79,000 compounds went through this panel and 15% of them were active in at least one assay; those are over-represented in the sample as a whole.
Let's look at some compounds and their measured growth inhibition.
Return type: number; implicit unit %.

{"columns": ["COMPOUND", "UNITS TEXT", "growth inhibition"],
 "data": [
  ["CC1CP(=O)(Cc2ccccc2)C(C)(c2ccccc2)C1=O (stereo not drawn)", "%", -0.95],
  ["CCCOC(=O)C(OC(=O)c1ccccc1)C(OC(=O)c1ccccc1)C(=O)OCCC (stereo not drawn)", "%", 0.1]
]}

Here is the next item to consider.
Just so you know, measured growth inhibition for CN(C)/N=N/c1nc2c(c(=O)n(C)c(=O)n2C)n1CC(O)CO (stereo not drawn) came out at 29

###

# TEST DESCRIPTION: NCI Yeast Anticancer Drug Screen. Data for the mlh1 rad18 strain (AID 175)
# TEST SETTINGS: S. cerevisiae mlh1 rad18 strain growth inhibition; at 50.0 µM; stronger effect = higher value
The panel holds about 79,000 compounds, 15% with a hit somewhere; the sample as a whole holds those more often.
Let's look at some compounds and their measured growth inhibition.
Return type: number; implicit unit %.

Check out these entries, answers already filled in.
{"columns": ["COMPOUND", "growth inhibition, %"],
 "data": [
  ["CN(CCNC(=O)NCCCCCCNC(=O)NCCN(C)c1ccccc1)c1ccccc1", -5.05],
  ["Cc1cccc(N=Cc2ccc(Cl)cc2Cl)c1C", 31.6]
]}

Just so you know, measured growth inhibition for CN(C)CCNC(=O)c1cccc(N(C)C(=O)c2ccccc2)c1[N+](=O)[O-] came out at 3.15

Just so you know, measured growth inhibition for CC[N+](C)(CC)c1cccc(OC(=O)Nc2ccc(OC)cc2)c1 came out at 14.3

Just so you know, measured growth inhibition for COC1OC(CBr)C(OC(=O)c2ccccc2)C(OC(C)=O)C1OC(C)=O (stereo unspecified) came out at -22.8

Just so you know, measured growth inhibition for CC(C)CCNCCC(C)C came out at 21.9
